Field: pIC50. Provide a value for each of the molecules that follow.
- MEASUREMENT_TARGET: p-AXL (Homo sapiens, UniProt P30530)
- Sequence (P30530 26-894): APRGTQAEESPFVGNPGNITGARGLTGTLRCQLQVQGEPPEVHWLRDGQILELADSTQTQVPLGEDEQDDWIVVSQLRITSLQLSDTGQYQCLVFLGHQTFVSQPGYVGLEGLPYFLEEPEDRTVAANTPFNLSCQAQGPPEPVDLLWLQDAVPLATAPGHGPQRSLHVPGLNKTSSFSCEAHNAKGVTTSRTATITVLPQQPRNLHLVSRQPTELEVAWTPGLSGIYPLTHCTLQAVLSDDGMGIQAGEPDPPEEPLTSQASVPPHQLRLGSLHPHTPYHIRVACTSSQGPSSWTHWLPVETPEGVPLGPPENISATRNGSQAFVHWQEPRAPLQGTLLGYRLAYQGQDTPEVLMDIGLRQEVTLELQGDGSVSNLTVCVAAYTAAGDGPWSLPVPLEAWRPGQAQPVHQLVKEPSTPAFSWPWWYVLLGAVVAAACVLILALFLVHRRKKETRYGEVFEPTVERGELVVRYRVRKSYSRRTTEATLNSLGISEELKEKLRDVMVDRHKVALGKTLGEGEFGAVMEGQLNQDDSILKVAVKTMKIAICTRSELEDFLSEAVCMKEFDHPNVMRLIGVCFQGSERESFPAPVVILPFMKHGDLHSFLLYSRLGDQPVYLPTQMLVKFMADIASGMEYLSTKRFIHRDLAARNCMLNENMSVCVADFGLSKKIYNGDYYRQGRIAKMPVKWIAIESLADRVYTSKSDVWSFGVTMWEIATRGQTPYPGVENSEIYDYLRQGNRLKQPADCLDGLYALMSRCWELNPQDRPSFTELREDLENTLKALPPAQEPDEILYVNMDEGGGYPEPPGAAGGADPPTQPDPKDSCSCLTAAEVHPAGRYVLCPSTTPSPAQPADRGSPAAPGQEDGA
- ASSAY_COMMENT: Axl phosphorylation inhibition ELISA in HEK293T cells transfected with NanoLuc-tagged AXL
- TEST_PARAMETERS: 1 h compound incubation, media (OptiMEM)
pIC50: −log10 of the molar value.

### Prompt Tell me its pIC50 given Cc1nn(C)nc1-c1ccc(-c2n[nH]c3ncc(-c4ccc5c(c4)CC[C@@H](N4C6COCC4C6)CC5)cc23)cc1 as the entry.
### Response > 7.00

### Prompt Tell me its pIC50 given Cc1cc(-c2ncccc2C)ccc1-c1n[nH]c2ncc(-c3ccc4c(c3)CC[C@@H](N3C5COCC3C5)CC4)cc12 as the entry.
### Response 6.00 to 7.00

### Prompt Tell me its pIC50 given Cc1cccnc1-c1ccc(-c2n[nH]c3ncc(-c4ccc5c(c4)CC(N4CCCC4)CC5)cc23)cc1 (stereo not drawn) as the entry.
### Response 6.00 to 7.00

### Prompt Tell me its pIC50 given Cc1ccc(C)c(-c2ccc(-c3c[nH]c4ncc(-c5ccc6c(c5)CC[C@@H](N5C7COCC5C7)CC6)cc34)cc2C)n1 as the entry.
### Response > 7.00

### Prompt Tell me its pIC50 given Cn1ncnc1-c1ccc(-c2n[nH]c3ncc(-c4ccc5c(c4)CC[C@@H](N[C@H]4CCCOC4)CC5)cc23)cc1 as the entry.
### Response > 7.00

### Prompt Tell me its pIC50 given Cc1ccnnc1-c1ccc(-c2n[nH]c3ncc(-c4ccc5c(c4)CC[C@@H](N4C6COCC4C6)CC5)cc23)nc1 as the entry.
### Response > 7.00

### Prompt Tell me its pIC50 given Cc1cccnc1-c1ccc(-c2c[nH]c3ncc(-c4ccc5c(c4)CC[C@@H](N4C[C@@H]6C[C@H]4CO6)CC5)cc23)cc1 as the entry.
### Response > 7.00

### Prompt Tell me its pIC50 given Cc1cccnc1-c1ccc(-c2n[nH]c3ncc(-c4ccc5c(c4)CC[C@@H](N4C6COCC4C6)CC5)cc23)nc1 as the entry.
### Response > 7.00

### Prompt Tell me its pIC50 given CN(C(=O)C1CC1)c1cccnc1-c1ccc(-c2n[nH]c3ncc(-c4ccc5c(c4)CC[C@@H](N4C6COCC4C6)CC5)cc23)cc1 as the entry.
### Response > 7.00

### Prompt Tell me its pIC50 given Cc1cccnc1-c1ccc(-c2c[nH]c3nnc(-c4ccc5c(c4)CC[C@@](C)(N4CCC[C@H]4C)CC5)cc23)cc1 as the entry.
### Response > 7.00

### Prompt Tell me its pIC50 given Cc1ccc(C)c(-c2ccc(-c3n[nH]c4ncc(-c5ccc6c(c5)CC[C@@H](N[C@H]5CCCOC5)CC6)cc34)cc2)n1 as the entry.
### Response > 7.00

### Prompt Tell me its pIC50 given Cc1cccc(-c2ccc(-c3n[nH]c4ncc(-c5ccc6c(c5)CC[C@@H](N5C7COCC5C7)CC6)cc34)cc2)n1 as the entry.
### Response 6.00 to 7.00

### Prompt Tell me its pIC50 given Cn1nncc1-c1ccc(-c2n[nH]c3ncc(-c4ccc5c(c4)CC[C@@H](N4C6COCC4C6)CC5)cc23)cc1 as the entry.
### Response 6.00 to 7.00

### Prompt Tell me its pIC50 given Cc1cnc(-c2ccc(-c3n[nH]c4ncc(-c5ccc6c(c5)CC[C@@H](N5C7COCC5C7)CC6)cc34)cc2)c(C)c1 as the entry.
### Response > 7.00

### Prompt Tell me its pIC50 given Cc1cc(-c2n[nH]c3ncc(-c4ccc5c(c4)CC[C@@H](N4C6COCC4C6)CC5)cc23)ccc1-c1ccccn1 as the entry.
### Response 6.00 to 7.00

### Prompt Tell me its pIC50 given c1cnc(-c2ccc(-c3n[nH]c4ncc(-c5ccc6c(c5)CC[C@@H](N5C7COCC5C7)CC6)cc34)cc2)c(C2CC2)c1 as the entry.
### Response 6.00 to 7.00

### Prompt Tell me its pIC50 given Cc1cccnc1-c1ccc(-c2n[nH]c3ncc(-c4ccc5c(c4)CC[C@@H](N[C@H]4CCCOC4)CC5)cc23)cc1 as the entry.
### Response > 7.00

### Prompt Tell me its pIC50 given Cc1cccnc1-c1cnc(-c2n[nH]c3ncc(-c4ccc5c(c4)CC[C@@H](N4C6COCC4C6)CC5)cc23)cn1 as the entry.
### Response > 7.00
